B1: CPEB3 Ribozyme (parent)
chain: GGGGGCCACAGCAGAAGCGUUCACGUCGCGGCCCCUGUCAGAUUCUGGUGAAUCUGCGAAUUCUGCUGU

Variants of: B1
Assay: self-cleavage, relative activity (ratio to wild type); higher = more cleavage; co-transcriptional
Kindly return criterion met if reported self-cleavage is no lower than 0.4; return criterion not met if it is lower.

| macromoleculeSequence | category |
| --- | --- |
| GGGGGCCACAGCAGAAUCGUUCACGUCGCGGCCCCUGUCAGAUUCUGUUGAAUCUGCGAAUUCUGCUGU | criterion met |
| GGGGGCCACAGCAGAAGCGUUCACGUCGCGCCCCCUGUCAGAUUCUGGUGAAUCUGCGACUUCUGCUGU | criterion not met |
| GGGGGCCACAGUAGAAGCGUUCACGUCGCGGCUCCUGUCAGAUUCUGGUGAAUCUGCGAAUUCUGCUGU | criterion met |
| GGGGGCCACAGCAGAAGCGUUCACCUCGCGGCCCCUGUCAGAUUCUGGUGAAUCUGCGAAUUCAGCUGU | criterion not met |
| GGGGGCCACAGCAUAAGCGUUCACGUCGCGGCCCCUGUCACAUUCUGGUGAAUCUGCGAAUUCUGCUGU | criterion not met |
| GGGGGCCACAGCAGAAGCGUUCACGUCGCGGCCCCUGUCAGAUUCUGGUGAAGCUGAGAAUUCUGCUGU | criterion not met |
| GGGGGCAACAGCAGAAGCGUUCACGUCGCGGCCUCUGUCAGAUUCUGGUGAAUCUGCGAAUUCUGCUGU | criterion met |
| GGGGGCCACAGCAGAAGCGUUCACGUCGCGGCCGCUGUCAGAUUCUGUUGAAUCUGCGAAUUCUGCUGU | criterion met |
| GGGGGCCACAGCAGUAGCGUUGACGUCGCGGCCCCUGUCAGAUUCUGGUGAAUCUGCGAAUUCUGCUGU | criterion not met |
| GGGGGCCACAGCAGAAGCGUUCACGUCGCGGCCCCGGUCAGAUUCUGGUGAAUCUGCGAAUUCUGCCGU | criterion not met |
| GGGGGCCACAGCAGAAGCGUUCACGUCGCGGCCCCUGUCAGAUUCUGGAGAAUUUGCGAAUUCUGCUGU | criterion met |
| GGGGGCCACAGCAGUAGCGUUCACGUCGCGGCCCCUGUCAGAUUGUGGUGAAUCUGCGAAUUCUGCUGU | criterion met |
| GGGGGCCACAGCAGAAGCGUUCUCGUCGCGGCCCCAGUCAGAUUCUGGUGAAUCUGCGAAUUCUGCUGU | criterion not met |
| GGGGGCCACAGCAGAAGCGUUCACGUCGCGUCCCCUGUCAGAUUCUGGUGAAUCUGCGAUUUCUGCUGU | criterion not met |
| GGGGGACACAGCAGAAGCGUUCACGUCGCGGGCCCUGUCAGAUUCUGGUGAAUCUGCGAAUUCUGCUGU | criterion not met |
| GGGGGCCACAGUAGAAGCGUUCACGUCGCGGCCCCUGUCAGAUUCUGGUCAAUCUGCGAAUUCUGCUGU | criterion met |
| GGGUGCCACAGCAGAAGCGUUCACGUCGCGGCCCCUGUCAGAUUCUGGUGAAUCUGCGAAUUCUGUUGU | criterion met |
| GGGGGCCACAGCAGAAGCGUUCACGUCGCGGCCCCUGUCAGAUUCUGGUGAGUCGGCGAAUUCUGCUGU | criterion met |
| GGGGGCCACAGCAGAAGCGUUCACGUCGCGGCCCCUGUCAGAUUCUGUUGAAUCUGCGACUUCUGCUGU | criterion not met |
| GGGGGCCACAGCAGAAGCGUUCACGUCGCGGCCCCUGUCAGAUUCUGGUGAAUCUGCGCAUUCUGCUGC | criterion met |
| GGGGGCCACAGCAGAAGCGUUCAGGUCGCGGCCCCUGUCAGAUUCUGGUGAAUGUGCGAAUUCUGCUGU | criterion not met |

Values were extracted from the RNAGym collection of RNA variant scans (doi:10.7554/elife.80360).
